Entry source: patent US8748598B2

Test system: potato 5-lipoxygenase
Assay: 5-Lipoxygenase enzyme inhibitory activity
Assay type: biochemical
Conditions: 25 μg/ml
VALUE_KIND: % inhibition at 25 μg/ml (%)
Answer in %, number only, no unit symbol.

Q: Please give the measured % inhibition at 25 μg/ml for this compound: CC(=O)O[C@@H]1CC[C@@]2(C)C(CC[C@]3(C)C2C(=O)C=C2C4[C@@H](C)[C@H](C)CC[C@]4(C)CC[C@]23C)[C@@]1(C)C(=O)Nc1ccc(O)cc1 (stereo partly shown)
Result: 30.56

Q: Please give the measured % inhibition at 25 μg/ml for this compound: C[C@@H]1CC[C@]2(C)CC[C@]3(C)C(=CC(Cl)=C4[C@@]5(C)CC[C@@H](O)[C@](C)(C(=O)O)C5CC[C@]43C)C2[C@H]1C (stereo partly shown)
Result: 39.24

Q: Please give the measured % inhibition at 25 μg/ml for this compound: CC(=O)O[C@@H]1CC[C@@]2(C)C(CC[C@]3(C)C2CC=C2C4[C@@H](C)[C@H](C)CC[C@]4(C)CC[C@]23C)[C@@]1(C)C(=O)N1CCNCC1 (stereo partly shown)
Result: 64.24

Q: Please give the measured % inhibition at 25 μg/ml for this compound: CC(=O)O[C@@H]1CC[C@@]2(C)C(CC[C@]3(C)C2C(=O)C=C2C4[C@@H](C)[C@H](C)CC[C@]4(C)CC[C@]23C)[C@@]1(C)C(=O)NNc1ccccc1 (stereo partly shown)
Result: 54.10

Q: Please give the measured % inhibition at 25 μg/ml for this compound: CC(=O)O[C@@H]1CC[C@@]2(C)C(CC[C@]3(C)C2C(=O)C=C2C4[C@@H](C)[C@H](C)CC[C@]4(C)CC[C@]23C)[C@@]1(C)C(=O)N1CCN(CCO)CC1 (stereo partly shown)
Result: 48.69

Q: Please give the measured % inhibition at 25 μg/ml for this compound: CC(=O)O[C@@H]1CC[C@@]2(C)C(CC[C@]3(C)C2C(=O)C=C2C4[C@@H](C)[C@H](C)CC[C@]4(C)CC[C@]23C)[C@@]1(C)C(=O)NCCCCN (stereo partly shown)
Result: 29.40

Q: Please give the measured % inhibition at 25 μg/ml for this compound: CNC(=O)[C@]1(C)C2CC[C@]3(C)C(C(=O)C=C4C5[C@@H](C)[C@H](C)CC[C@]5(C)CC[C@]43C)[C@@]2(C)CC[C@H]1OC(C)=O (stereo partly shown)
Result: 30.90

Q: Please give the measured % inhibition at 25 μg/ml for this compound: CC(=O)O[C@@H]1CC[C@@]2(C)C(CC[C@]3(C)C2C(=O)C=C2C4[C@@H](C)[C@H](C)CC[C@]4(C)CC[C@]23C)[C@@]1(C)C(=O)NCCNC=O (stereo partly shown)
Result: 54.18

Q: Please give the measured % inhibition at 25 μg/ml for this compound: CC(=O)O[C@@H]1CC[C@@]2(C)C(CC[C@]3(C)C2C(=O)C=C2C4[C@@H](C)[C@H](C)CC[C@]4(C)CC[C@]23C)[C@@]1(C)C(=O)NCCN(CCO)CCO (stereo partly shown)
Result: 47.02

Q: Please give the measured % inhibition at 25 μg/ml for this compound: CC(=O)O[C@@H]1CC[C@@]2(C)C(CC[C@]3(C)C2C(=O)C=C2C4[C@@H](C)[C@H](C)CC[C@]4(C)CC[C@]23C)[C@@]1(C)C(=O)NCCCCCCCN (stereo partly shown)
Result: 52.48

Q: Please give the measured % inhibition at 25 μg/ml for this compound: CC(=O)O[C@@H]1CC[C@@]2(C)C(CC[C@]3(C)C2C(=O)C=C2C4[C@@H](C)[C@H](C)CC[C@]4(C)CC[C@]23C)[C@@]1(C)C(=O)N(C)C (stereo partly shown)
Result: 36.73

Q: Please give the measured % inhibition at 25 μg/ml for this compound: CC(=O)O[C@@H]1CC[C@@]2(C)C(CC[C@]3(C)C2C(=O)C=C2C4[C@@H](C)[C@H](C)CC[C@]4(C)CC[C@]23C)[C@@]1(C)C(=O)NCCCCCCN (stereo partly shown)
Result: 52.98

Q: Please give the measured % inhibition at 25 μg/ml for this compound: CC(=O)O[C@@H]1CC[C@@]2(C)C(CC[C@]3(C)C2C(=O)C=C2C4[C@@H](C)[C@H](C)CC[C@]4(C)CC[C@]23C)[C@@]1(C)C(=O)n1ccnc1 (stereo partly shown)
Result: 40.47
